meta.source: patent US11214614B2

# system_under_test: huLTBP1 proTGFβ1 (Homo sapiens, UniProt P01137+Q14766)
# Sequence (P01137 30-390): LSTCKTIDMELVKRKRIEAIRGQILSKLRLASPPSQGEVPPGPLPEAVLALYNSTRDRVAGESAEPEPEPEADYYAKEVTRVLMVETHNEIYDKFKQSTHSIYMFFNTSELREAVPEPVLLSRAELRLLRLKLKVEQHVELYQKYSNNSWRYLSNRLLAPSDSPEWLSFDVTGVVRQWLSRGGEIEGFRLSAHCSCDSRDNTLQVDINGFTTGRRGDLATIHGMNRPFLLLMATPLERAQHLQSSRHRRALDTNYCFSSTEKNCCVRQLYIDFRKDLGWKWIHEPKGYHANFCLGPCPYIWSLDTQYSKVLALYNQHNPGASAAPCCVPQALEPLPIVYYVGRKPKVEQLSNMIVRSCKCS
# Sequence (Q14766 347-1721 limits assumed): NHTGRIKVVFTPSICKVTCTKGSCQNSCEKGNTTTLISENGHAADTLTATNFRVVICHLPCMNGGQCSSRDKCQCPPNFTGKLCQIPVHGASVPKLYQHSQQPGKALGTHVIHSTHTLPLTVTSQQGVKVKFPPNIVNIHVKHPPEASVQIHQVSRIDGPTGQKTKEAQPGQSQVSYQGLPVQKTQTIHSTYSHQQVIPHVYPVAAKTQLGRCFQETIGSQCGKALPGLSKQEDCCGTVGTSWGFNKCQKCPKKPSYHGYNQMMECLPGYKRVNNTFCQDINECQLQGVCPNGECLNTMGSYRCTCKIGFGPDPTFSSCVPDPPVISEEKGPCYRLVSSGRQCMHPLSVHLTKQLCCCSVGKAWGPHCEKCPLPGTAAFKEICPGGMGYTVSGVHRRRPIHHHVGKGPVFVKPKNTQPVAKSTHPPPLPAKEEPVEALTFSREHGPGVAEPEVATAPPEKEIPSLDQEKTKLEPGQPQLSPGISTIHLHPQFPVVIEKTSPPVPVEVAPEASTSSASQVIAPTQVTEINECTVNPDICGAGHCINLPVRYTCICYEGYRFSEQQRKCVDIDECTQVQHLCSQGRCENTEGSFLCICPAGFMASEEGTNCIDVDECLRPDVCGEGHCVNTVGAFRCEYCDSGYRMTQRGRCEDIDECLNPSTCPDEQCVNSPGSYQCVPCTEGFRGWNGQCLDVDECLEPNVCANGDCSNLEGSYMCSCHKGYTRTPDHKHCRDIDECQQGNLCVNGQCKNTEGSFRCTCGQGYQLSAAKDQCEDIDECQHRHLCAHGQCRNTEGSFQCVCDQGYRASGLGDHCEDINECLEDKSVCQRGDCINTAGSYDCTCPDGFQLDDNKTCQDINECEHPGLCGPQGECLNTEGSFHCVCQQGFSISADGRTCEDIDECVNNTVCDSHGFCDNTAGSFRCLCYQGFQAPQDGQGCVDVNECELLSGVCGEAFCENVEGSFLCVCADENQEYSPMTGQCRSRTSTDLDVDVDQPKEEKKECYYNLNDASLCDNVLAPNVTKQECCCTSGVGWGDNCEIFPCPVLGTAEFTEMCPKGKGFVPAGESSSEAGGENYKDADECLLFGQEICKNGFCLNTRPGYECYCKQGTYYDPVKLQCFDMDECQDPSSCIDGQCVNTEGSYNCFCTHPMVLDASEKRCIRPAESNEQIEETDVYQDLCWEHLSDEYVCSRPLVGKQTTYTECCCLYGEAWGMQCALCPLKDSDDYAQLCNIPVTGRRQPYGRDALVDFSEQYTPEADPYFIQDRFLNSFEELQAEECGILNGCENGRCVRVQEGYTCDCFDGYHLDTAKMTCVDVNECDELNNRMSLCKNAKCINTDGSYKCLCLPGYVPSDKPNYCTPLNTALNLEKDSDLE
# method_notes: SPR (Biacore 8K) monovalent binding kinetics of Fabs, biotinylated antigen captured
# Parameters: biotin (complex biotinylated)
# reported_conditions: Fab, huLTBP1 proTGFβ1; SR-AB42-HuFab average of five, SR-AB63-HuFab average of four replicate experiments
Reported kd values for a set of molecules

# molecule, kd (s⁻¹)
rows = [
    ("SR-AB53-HuFab (antibody, V domains shown) VH: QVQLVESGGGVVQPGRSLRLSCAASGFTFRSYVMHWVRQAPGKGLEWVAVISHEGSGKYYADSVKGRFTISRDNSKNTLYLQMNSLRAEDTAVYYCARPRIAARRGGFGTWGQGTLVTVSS VL: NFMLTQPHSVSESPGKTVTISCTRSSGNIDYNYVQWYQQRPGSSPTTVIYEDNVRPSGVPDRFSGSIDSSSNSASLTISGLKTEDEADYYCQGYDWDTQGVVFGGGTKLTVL", 0.000128),
    ("SR-AB43-HuFab: human Fab fragment of SR-AB43 used in SPR (antibody, V domains shown) VH: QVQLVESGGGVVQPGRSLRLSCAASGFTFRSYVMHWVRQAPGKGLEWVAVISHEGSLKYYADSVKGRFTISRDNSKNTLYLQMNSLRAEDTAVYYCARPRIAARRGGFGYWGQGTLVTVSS VL: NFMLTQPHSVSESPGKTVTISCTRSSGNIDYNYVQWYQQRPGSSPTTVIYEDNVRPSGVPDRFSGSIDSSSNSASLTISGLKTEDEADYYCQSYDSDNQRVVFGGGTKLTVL", 0.000284),
    ("SR-AB55-HuFab (antibody, V domains shown) VH: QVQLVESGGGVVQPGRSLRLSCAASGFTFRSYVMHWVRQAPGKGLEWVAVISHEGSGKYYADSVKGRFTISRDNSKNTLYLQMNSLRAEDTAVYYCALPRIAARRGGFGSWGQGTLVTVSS VL: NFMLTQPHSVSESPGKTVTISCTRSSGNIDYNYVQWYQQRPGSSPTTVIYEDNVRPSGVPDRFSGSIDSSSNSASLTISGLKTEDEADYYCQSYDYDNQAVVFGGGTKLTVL", 0.000113),
]
